Property: apparent KD of K4 kissing-loop reporter; scope: individual sequences
# Test system: K4 kissing-loop RNA reporter;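 also: bound reporter read as fluorescence of individual clusters on recovered sequencing chips by microscopy, with normalized cluster intensities fitted with a binding model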
# protocol-details: apparent KD of K4 kissing-loop reporter; higher = weaker reporter binding
# test-context: Eterna round: R107; input ligand: none
Numbers only here, please. The scale is nM.

{"record-sequence": "UGUCUGAUGGAAACAUCGGACUUUACUGAUACCAGUAUCGAUAGAUACCCUUGGCAGCAGAAUCAGUAAUAACGAGUGAUGUUCG [Ex Theophylline A K4 3]", "apparent KD of K4 kissing-loop reporter / nM": 386}
{"record-sequence": "GUAUAUCGAACUGAUACCAGAGAAUAUAGCAGUGAUGUUGCAUAUAUGAAUAAGACUCGACUCCCUUGGCAGCGGGAAGAUAUAC [On purpose 2]", "apparent KD of K4 kissing-loop reporter / nM": 137}
{"record-sequence": "AAGUGAUGUUGUAGUGAUGUUGUGAUGUUGCAGGAUAUAUAGUGAUGUAGAAGGGUAUGUACAGAUUUUUUUUUUGAGUGAUGAU [ffdcmullin]", "apparent KD of K4 kissing-loop reporter / nM": 64.9}

Lookup: Provide value of apparent KD of K4 kissing-loop reporter for this record tested with K4 kissing-loop RNA reporter: GGCAUAUAAAAUUGCCUAGAGAGAAAGGAUACCAGCACCCGGCGGUGCCCUUGGCAGCCUAGCCCAGUGAUGUUGGGUCCUCUAA [Esinvege]
Found: 189

Lookup: Provide value of apparent KD of K4 kissing-loop reporter for this record tested with K4 kissing-loop RNA reporter: CACCUGCCAUAAGGAUAUUCGUCUUUGCGCUUCCAGUGAUGUUGGAGAUCGCAACACAUGGUCAUAGAAGAAGGUAUGGUAUUAA [theeternabot_sameState_KL_FMN_B_35]
Found: 195

Lookup: Provide value of apparent KD of K4 kissing-loop reporter for this record tested with K4 kissing-loop RNA reporter: UGACAUUGCUCAGAUACCAGACUUGAGGAACACCCAAGUGCCAAACGUACAAUAAUAAAAGUCCCUUGGCAGCUGAGCAAUGUCU [TheoBX 14]
Found: 82.1

Lookup: Provide value of apparent KD of K4 kissing-loop reporter for this record tested with K4 kissing-loop RNA reporter: "GCCCGAAAGGGCCGAUGUGUUUGCGGCGAUCGAGGACCGGUACGGCCGCCACUCGUCGAGGCGUUCAGUGAUGUUGAAAGCAUUA"
Found: 352

Lookup: Provide value of apparent KD of K4 kissing-loop reporter for this record tested with K4 kissing-loop RNA reporter: UGGCGAGUGAUGUUCGUUGUUGUUGUGUGUCGAGGACCGGUACGGCCGCCACUCGAGUUGGUUGUUGUUGUUGCUGUUGUUGCUG [#04 K4 Tryptophan A Same State]
Found: 155

Lookup: Provide value of apparent KD of K4 kissing-loop reporter for this record tested with K4 kissing-loop RNA reporter: CCAUCGCUAUUCGAUACCAGUCAAAAUAAAAUAAUAAAUCUGCAAAGGAGUGAUGUUCCAGACCCUUGGCAGCGAAUAGUGAUGG [Theophylline B K4 2]
Found: 834

Lookup: Provide value of apparent KD of K4 kissing-loop reporter for this record tested with K4 kissing-loop RNA reporter: CGCUGGGCGAGUGAUGUUCGCUCACGUGAUACCAGUGCCAUCCAACACCCUUGGCAGCACGCGGGCAGUGAUGUUGUCCUUGUGG [Exclusion Theophylline A GF7]
Found: 285

Lookup: Provide value of apparent KD of K4 kissing-loop reporter for this record tested with K4 kissing-loop RNA reporter: UAGACCUACUCAGGAUAUCCGCAGUGAUGUUGCGGUUGGCCUGAGCGACAUGAAAAUCUUACUAAAGGAGAAGGGAGAGGGUUAC [Ratiteus]
Found: 94.3

Lookup: Provide value of apparent KD of K4 kissing-loop reporter for this record tested with K4 kissing-loop RNA reporter: UGAUAGGACAGAAGGAGCGGAAGUGAUGUUUCCAAAAGAUAUGGUCGACAAAGUCGACUUUUCCAGGUAGGUCGCUGUCCUAUCU [KL-XARG-B18]
Found: 67.1
